tgt: UniProt:P06276
Sequence (P06276 whole entry): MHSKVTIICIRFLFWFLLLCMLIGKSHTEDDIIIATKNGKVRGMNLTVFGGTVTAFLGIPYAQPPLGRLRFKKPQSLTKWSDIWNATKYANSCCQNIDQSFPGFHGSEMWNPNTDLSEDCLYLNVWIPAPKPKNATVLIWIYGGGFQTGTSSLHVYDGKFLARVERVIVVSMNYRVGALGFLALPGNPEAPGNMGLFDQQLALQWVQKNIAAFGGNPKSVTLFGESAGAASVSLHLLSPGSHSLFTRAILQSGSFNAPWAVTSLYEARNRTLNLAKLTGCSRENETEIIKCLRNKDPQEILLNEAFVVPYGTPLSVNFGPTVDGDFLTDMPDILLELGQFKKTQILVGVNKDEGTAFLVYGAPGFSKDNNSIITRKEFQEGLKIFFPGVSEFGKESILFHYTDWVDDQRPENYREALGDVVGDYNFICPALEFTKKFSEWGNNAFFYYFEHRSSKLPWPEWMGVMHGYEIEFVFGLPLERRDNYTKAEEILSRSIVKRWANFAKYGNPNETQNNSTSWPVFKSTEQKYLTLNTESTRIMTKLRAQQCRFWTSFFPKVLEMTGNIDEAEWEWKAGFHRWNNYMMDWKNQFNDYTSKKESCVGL
protocol.description: Inhibition of human plasma butyrylcholinesterase by Ellman's method
Entries and their IC50 values follow.
attribute.measured: IC50 (µM)

O=C(c1ccc(OCCCc2cnc[nH]2)cc1)C1CC1 [CIPROXIFAN] | 77.3
C#CCN(C)Cc1cc2cc(OCCCC3CCN(Cc4ccccc4)CC3)ccc2n1C | 1.82

* * *

Entries and their inhibition values follow.
tgt: Acetylcholinesterase (Electrophorus electricus)
protocol.description: Inhibition of electric eel AChE-induced amyloid beta 1 to 40 (unknown origin) aggregation at 100 uM incubated for 8 hrs by thioflavin-T fluorescence method relative to control
attribute.measured: inhibition (%)

O=C(/C=C\C(=O)Nc1ccc2c(c1)C(=O)c1cccc3ccnc-2c13)NCCc1c[nH]c2ccc(F)cc12 | 32.5
Cc1ccc2[nH]cc(CCNC(=O)/C=C\C(=O)Nc3ccc4c(c3)C(=O)c3cccc5ccnc-4c35)c2c1 | 57.7
O=C(/C=C/C(=O)Nc1ccc2c(c1)C(=O)c1cccc3ccnc-2c13)NCCc1c[nH]c2ccc(F)cc12 | 60.5
COc1ccc2[nH]cc(CCNC(=O)/C=C\C(=O)Nc3ccc4c(c3)C(=O)c3cccc5ccnc-4c35)c2c1 | 50.4
